tested on: NCI-H522 lung; assay: NCI tumour cell line growth inhibition, 48 h
Reported Metric: TGI

Answered examples (5):
{"Compound": "Cc1cc(Cl)ccc1NC(=O)CC/C(CC(=O)C(C)C)=N\\NC(=O)C[n+]1ccccc1", "TGI": "> 100 µM"}
{"Compound": "CN(C(=O)c1ccco1)C(=S)N1CCN(c2ccccc2)CC1", "TGI": "> 100 µM"}
{"Compound": "CC(=O)C1C(=O)C(=O)N(c2ccccc2C(C)C)C1=O (centres undefined)", "TGI": "> 100 µM"}
{"Compound": "O=c1c2cc(I)ccc2nc(-c2cccs2)n1-c1ccc(O)cc1", "TGI": "30.1 µM"}
{"Compound": "CC(C)c1cccc2sc(NC(=O)C(=O)C(C#N)c3cccc4ccccc34)nc12 (centres undefined)", "TGI": "> 100 µM"}

[Q] Requested field: TGI. Item: O=C(NN1C(=O)CSC12CCCC2)c1[nH]c2ccc(Br)cc2c1-c1ccccc1
[A] > 100 µM

[Q] Requested field: TGI. Item: Cc1cccc(C(C)C)c1NC(=O)CC1C(=O)Nc2ccccc2S1(=O)=O (centres undefined)
[A] 31.5 µM

====

tested on: HCC-2998 colon; experiment: NCI tumour cell line growth inhibition, 48 h
Readings of TGI for the listed compounds

Answered examples (4):
{"Compound": "COc1ccc2nc3cc([N+](=O)[O-])ccc3c(Nc3ccc(S(=O)(=O)NC(C)=O)cc3)c2c1", "TGI": "> 100 µM"}
{"Compound": "S=C1SCN(Cc2ccco2)CN1c1ccc(Br)cc1", "TGI": "27.5 µM"}
{"Compound": "Cc1c(NC(=O)CSC(=S)N2CCN(Cc3ccccc3)CC2)c(=O)n(-c2ccccc2)n1C", "TGI": "> 100 µM"}
{"Compound": "COC(=O)C1=C(c2cc(OC)c(OC)c(OC)c2)OC(c2ccc(OC)c(OC)c2)C1 (stereo unspecified)", "TGI": "> 100 µM"}

[Q] Requested field: TGI. Item: Nc1nc(Nc2ccc(C3CCC(N4CCOCC4)CC3)cc2)nn1-c1ccccn1 (stereo unspecified)
[A] > 100 µM

[Q] Requested field: TGI. Item: O=C1c2cc3c(cc2CC12Cc1ccc4c(c1C2=O)CCCC4)CCCC3 (stereo unspecified)
[A] > 100 µM

[Q] Requested field: TGI. Item: COc1ccccc1Cc1nc(-c2ccccc2)nn(C2OC(COC(C)=O)C(OC(C)=O)C(OC(C)=O)C2OC(C)=O)c1=S (stereo unspecified)
[A] > 43.2 µM

====

test system: SN12C renal; assay: NCI tumour cell line growth inhibition, 48 h
Readings of TGI for the listed compounds

Answered examples (5):
{"Compound": "COc1ccc(/C=N/N=C(\\N)NO)c(OC)c1", "TGI": "> 100 µM"}
{"Compound": "CCCCCC(C)SC1(C(=O)OC)CC(OC(C)=O)C(NC(C)=O)C([C@H](OC(C)=O)[C@@H](COC(C)=O)OC(C)=O)O1 (stereo not given in full)", "TGI": "> 100 µM"}
{"Compound": "O=C(Cn1c(C(=O)/C=C/c2cccs2)nc2ccccc21)c1ccc(Cl)cc1", "TGI": "50.1 µM"}
{"Compound": "Cc1cn(Cc2cnnn2CC2OC(n3cc(C)c(=O)[nH]c3=O)CC2O)c(=O)[nH]c1=O (stereo not given)", "TGI": "> 100 µM"}
{"Compound": "COC(=O)C(Cc1ccccc1)NP(=O)(O)OCC1OC(n2cc(F)c(=O)[nH]c2=O)CC1O (stereo not given)", "TGI": "> 100 µM"}

[Q] Requested field: TGI. Item: COc1ccc2ccccc2c1C1OC(=O)c2ccccc21 (stereo not given)
[A] > 100 µM

[Q] Requested field: TGI. Item: O=c1cc(N2CCN(c3cc(=O)n4ccccc4n3)CC2)oc2ccccc12
[A] > 100 µM

====

system: SK-MEL-5 melanoma; assay: NCI tumour cell line growth inhibition, 48 h
Reported Metric: TGI

Answered examples (10):
{"Compound": "O=c1c2ccccc2nc(-c2ccccc2)n1NC1OC(CO)C(O)C(O)C1O (stereo unspecified)", "Tested On": "SK-MEL-5 melanoma", "TGI": "> 100 µM"}
{"Compound": "CC[N+]1(C)CCC(O)(c2ccc(Cl)c(Cl)c2)C(C(=O)c2ccc(Cl)c(Cl)c2)C1 (stereo unspecified)", "Tested On": "SK-MEL-5 melanoma", "TGI": "> 10 µM"}
{"Compound": "CCc1ccc(NC(=O)COC(=O)c2cc([N+](=O)[O-])ccc2Sc2nnnn2C)cc1", "Tested On": "SK-MEL-5 melanoma", "TGI": "18 µM"}
{"Compound": "O=[N+]([O-])c1cccc([As]=[As]c2cccc([N+](=O)[O-])c2)c1 (stereo unspecified)", "Tested On": "SK-MEL-5 melanoma", "TGI": "0.324 µM"}
{"Compound": "COC(=O)C1=CC2C(=O)OC1CC2C#N (stereo unspecified)", "Tested On": "SK-MEL-5 melanoma", "TGI": "> 100 µM"}
{"Compound": "COc1ccccc1NC(=O)CC(=O)N1N=C(C)C(N=Nc2ccc(C(=O)O)cc2)C1=O (stereo unspecified)", "Tested On": "SK-MEL-5 melanoma", "TGI": "> 100 µM"}
{"Compound": "O=C1C(=O)c2ccccc2C(O)=C1CCCc1ccc(Oc2ccccc2)cc1", "Tested On": "SK-MEL-5 melanoma", "TGI": "10.6 µM"}
{"Compound": "O=C1/C(=N\\S(=O)(=O)c2ccccc2)C([n+]2ccc(Cc3ccccc3)cc2)=C([O-])c2ccccc21", "Tested On": "SK-MEL-5 melanoma", "TGI": "0.302 µM"}
{"Compound": "O=C(Nc1nc2ccccc2s1)c1cc([N+](=O)[O-])ccc1Cl", "Tested On": "SK-MEL-5 melanoma", "TGI": "25.1 µM"}
{"Compound": "COc1ccc(C(=O)Cc2ccc(Br)cc2)cc1OC", "Tested On": "SK-MEL-5 melanoma", "TGI": "> 100 µM"}

[Q] Requested field: TGI. Item: O=C(/C=C/c1ccc([N+](=O)[O-])cc1)c1ccc2c3c(cccc13)CC2
[A] > 100 µM

[Q] Requested field: TGI. Item: COc1ccc(-c2cc(-c3ccc(Nc4ccnc5cc(Cl)ccc45)cc3)[nH]c(=O)c2C#N)c2ccccc12
[A] > 63.4 µM

[Q] Requested field: TGI. Item: NNC(=O)Cn1c2ccc(Br)cc2c2nc3ccccc3nc21
[A] > 100 µM

[Q] Requested field: TGI. Item: CSc1n[nH]c(N)c1C(=O)Nc1ccc(C)cc1
[A] > 100 µM

[Q] Requested field: TGI. Item: COC(=O)c1c(OC(C)=O)ccc2c1c1c(n2C)C(=O)c2ccccc2C1=O
[A] 47 µM

[Q] Requested field: TGI. Item: O=CC1CCCc2ccccc21 (stereo unspecified)
[A] > 100 µM

[Q] Requested field: TGI. Item: O=c1[nH]nc(-c2ccccc2)n1/N=C/c1cccnc1
[A] > 100 µM

[Q] Requested field: TGI. Item: O=C(O)c1nc(-c2ccccc2)[nH]c1C(=O)O
[A] 28.6 µM

[Q] Requested field: TGI. Item: C=C1C(=O)OC2/C=C(/C)C(OC(C)=O)CC(O)/C(C)=C\C(OC(=O)/C(C)=C\C)C12 (stereo unspecified)
[A] > 100 µM

[Q] Requested field: TGI. Item: COc1ccc(-c2cc(-c3cc4cc(Br)ccc4nc3Cl)c(C#N)c(N)n2)cc1
[A] > 12.5 µM

[Q] Requested field: TGI. Item: C(CCCCc1nnc(N2CCCCC2)o1)CCCc1nnc(N2CCCCC2)o1
[A] > 100 µM

====

system: SNB-75 CNS; experiment: NCI tumour cell line growth inhibition, 48 h
Readings of GI50 for the listed compounds

Answered examples (3):
{"Compound": "C1CN(SSN2CCOCC2)CCO1", "Tested On": "SNB-75 CNS", "GI50": "44.1 µM"}
{"Compound": "CC[C@H](CO)Nc1nc(NCc2ccccc2)n2ncc(C(C)C)c2n1", "Tested On": "SNB-75 CNS", "GI50": "1.31 µM"}
{"Compound": "Cc1cc(N2CCCC2)nc(N(CCNc2ccnc3cc(Cl)ccc23)Cc2ccco2)n1", "Tested On": "SNB-75 CNS", "GI50": "10.7 µM"}

[Q] Requested field: GI50. Item: Cc1c2c(nn1C)CSCc1cc(n(C)n1)CSc1cc(c3ccccc3c1)OCCCc1c(C(=O)O)n(C)c3c-2c(Cl)ccc13
[A] 4.35 µM

[Q] Requested field: GI50. Item: Cn1cc(C2=C(c3cccc(OCC(O)CO)c3)C(=O)NC2=O)c2ccccc21 (stereo not given)
[A] 5.86 µM

====

test system: UACC-62 melanoma; experiment: NCI tumour cell line growth inhibition, 48 h
Reported Metric: TGI (µM)
The figure you give is taken to be in µM; do not add the unit.

{"Compound": "COc1c2c(nc3ccccc13)-c1cc3c(c(=O)n1C2)COC(=O)C3(O)CC(=O)N1CCOCC1 (stereo not given)", "Reported Metric": "TGI", "Observed Measurement": 8.35}

Kindly consider the entry below.
[Q] Requested field: TGI. Item: COc1cc2c(cc1OC)C(Cl)C(c1ccc(Cl)c(Cl)c1)=C2Cl (stereo not given)
[A] 18.7
